Data origin, for the record: patent US12049474B2

# System: HEK293 cells
# Conditions: 50% cytotoxic concentration; italicized results: absence of human serum albumin
Provide the reported CC50 of each item.
Quick note: give the figure in µM, leave out the unit.

For the compound CCCCCCCCCCCCCCCCCCOP(=O)(O)CO[C@H](C)Cn1cnc2c(N)ncnc21.N , report CC50.
84.1

For the compound C[C@H](Cn1cnc2c(N)ncnc21)OCP(=O)(O)OCCCCCCCCCCCCCCCCCC#CC(F)(F)F.N , report CC50.
78.7

For the compound C[C@H](Cn1cnc2c(N)ncnc21)OCP(=O)(O)OCCCCCCCCCCCCCCCCCCCC(F)(F)F.N , report CC50.
72.4

For the compound C#CCCCCCCCCCCCCCCCCCCOP(=O)(O)CO[C@H](C)Cn1cnc2c(N)ncnc21.N , report CC50.
99.5

====

# Measurement target: UniProtKB P10635
# Sequence (P10635 whole entry): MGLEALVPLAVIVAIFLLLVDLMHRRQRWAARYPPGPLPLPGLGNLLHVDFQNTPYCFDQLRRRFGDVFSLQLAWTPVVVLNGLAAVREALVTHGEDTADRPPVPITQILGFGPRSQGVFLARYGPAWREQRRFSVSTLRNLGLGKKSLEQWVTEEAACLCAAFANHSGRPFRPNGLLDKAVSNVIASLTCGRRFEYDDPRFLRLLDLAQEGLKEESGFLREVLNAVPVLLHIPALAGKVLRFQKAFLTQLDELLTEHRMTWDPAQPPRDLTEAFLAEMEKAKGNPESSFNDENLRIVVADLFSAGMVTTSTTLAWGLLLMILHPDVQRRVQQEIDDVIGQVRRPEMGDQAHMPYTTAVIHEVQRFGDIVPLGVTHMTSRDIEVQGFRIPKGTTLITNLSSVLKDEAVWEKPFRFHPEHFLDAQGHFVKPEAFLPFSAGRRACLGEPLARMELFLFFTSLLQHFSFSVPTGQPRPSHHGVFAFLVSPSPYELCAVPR
# Test method notes: biochemical
# Assay type: biochemical
Provide the reported pIC50 of each item.
Units for pIC50: none; it is -log10 of a concentration expressed in mol/L.

For the molecule N.[2H]C([2H])([2H])CCCCCCCCCCCCCCCOP(=O)(O)CO[C@H](C)Cn1cnc2c(N)ncnc21 , report pIC50.
4.69

For the molecule N.[2H]C([2H])([2H])C([2H])([2H])CCCCCCCCCCCCCOP(=O)(O)CO[C@H](C)Cn1cnc2c(N)ncnc21 , report pIC50.
4.42

====

Provide the reported half-life at 3 µM of each item.
# Test method notes: Metabolic stability assay in human liver microsomes (HLM)
# Format: in vitro ADME
# Conditions: pH 7.4, 3 μM test compound, NADPH, sampled 0-120 min, read-out: HLM t1/2
Where a name gives a salt, the structure may show the parent alone.
Quick note: give the figure in min, leave out the unit.

For the compound C#CCCCCCCCCCCCCCCSCCCOP(=O)(O)CO[C@H](C)Cn1cnc2c(N)ncnc21 , report half-life at 3 µM.
96

For the compound N.[2H]C([2H])([2H])CCCCCCCCCCCCCCCOP(=O)(O)CO[C@H](C)Cn1cnc2c(N)ncnc21 , report half-life at 3 µM.
21

For the compound CCCCCCCCCCCCCSCCCCCCOP(=O)(O)CO[C@H](C)Cn1cnc2c(N)ncnc21 , report half-life at 3 µM.
66

For the compound C[C@H](Cn1cnc2c(N)ncnc21)OCP(=O)(O)OCCCSCCCCCCCCCCCCc1ccccc1.N , report half-life at 3 µM.
69

For the compound CCCCCCCCCCCCCCOCCCCCOP(=O)(O)COC(C)Cn1cnc2c(N)ncnc21.N (racemic) , report half-life at 3 µM.
29

For the compound CCCCCCCCCCCCCCCCCOCCOP(=O)(O)COC(C)Cn1cnc2c(N)ncnc21.N (racemic) , report half-life at 3 µM.
35

For the compound N.[2H]C([2H])([2H])C([2H])([2H])CCCCCCCCCCCCCOP(=O)(O)CO[C@H](C)Cn1cnc2c(N)ncnc21 , report half-life at 3 µM.
20

For the compound COC(=O)CCCCCCCCCCCCCCCSCCCOP(=O)(O)CO[C@H](C)Cn1cnc2c(N)ncnc21.N , report half-life at 3 µM.
36

For the compound CCCCCCCCCCCCCCCCSCCCOP(=O)(O)CO[C@H](C)Cn1cnc2c(N)ncnc21 , report half-life at 3 µM.
42

For the compound CC(C)OC(=O)[C@H](C)N[P@](=O)(CO[C@H](C)Cn1cnc2c(N)ncnc21)Oc1ccccc1 [TAF, tenofovir alafenamide fumarate] , report half-life at 3 µM.
26

For the compound CCCCCCCCCCSCCCCCCCCCOP(=O)(O)CO[C@H](C)Cn1cnc2c(N)ncnc21.N , report half-life at 3 µM.
13

For the compound CCCCCCCCCCCCCCCOCCCCOP(=O)(O)COC(C)Cn1cnc2c(N)ncnc21.N (racemic) , report half-life at 3 µM.
48

For the compound C[C@H](Cn1cnc2c(N)ncnc21)OCP(=O)(O)OCCCSCCCCCCCCCCCOc1ccccc1.N , report half-life at 3 µM.
15

For the compound C[C@H](Cn1cnc2c(N)ncnc21)OCP(=O)(O)OCCCSCCCCCCCCCCC#Cc1ccccc1.N , report half-life at 3 µM.
72

For the compound C[C@H](Cn1cnc2c(N)ncnc21)OCP(=O)(O)OCCCSCCCCCCCCCCCSc1ccccc1.N , report half-life at 3 µM.
12

====

# Test method notes: Metabolic stability assay in human liver microsomes (HLM)
# Assay type: in vitro ADME
# Conditions: 3 μM test compound, NADPH, sampled 0-120 min
Provide the reported HLM t1/2 of each item.

For the compound C#CCCCCCCCCCCCCCOP(=O)(O)CO[C@H](C)Cn1cnc2c(N)ncnc21.N , report HLM t1/2.
1.57 h

For the compound C#CCCCCCCCCCCCCCCCCOP(=O)(O)CO[C@H](C)Cn1cnc2c(N)ncnc21.N , report HLM t1/2.
>2 h

For the compound C#CCCCCCCCCCCCCCCOCCCOP(=O)(O)CO[C@H](C)Cn1cnc2c(N)ncnc21.N , report HLM t1/2.
>2 h

For the compound C[C@H](Cn1cnc2c(N)ncnc21)OCP(=O)(O)OCCCOCCCCCCCCCCCCCCCC(F)(F)F.N , report HLM t1/2.
>2 h

====

# Measurement target: UniProtKB P08684
# Test method notes: Fluorometric CYP450 enzyme inhibition assay, CYP3A4
# Type: biochemical
# Conditions: human recombinant CYP3A4, BFC substrate; read-out: CYP450 IC50 3A4
Assay readout: IC50 (µM)
Quick note: give the figure in µM, leave out the unit.

For the compound C[C@H](Cn1cnc2c(N)ncnc21)OCP(=O)(O)OCCCOCCCCCCCCCCCCCC#CC(F)(F)F.N , report IC50.
12

For the compound C#CCCCCCCCCCCCCCCCCSCCCOP(=O)(O)CO[C@H](C)Cn1cnc2c(N)ncnc21.N , report IC50.
37

For the compound CCCCCCCCCCCCCCCCSCCCOP(=O)(O)CO[C@H](C)Cn1cnc2c(N)ncnc21 , report IC50.
58

For the compound C[C@H](Cn1cnc2c(N)ncnc21)OCP(=O)(O)O [TFV, tenofovir, reference compound] , report IC50.
45.8

For the compound C[C@H](Cn1cnc2c(N)ncnc21)OCP(=O)(O)OCCCSCCCCCCCCCCCSc1ccccc1.N , report IC50.
11

For the compound COC(=O)CCCCCCCCCCCCCCCSCCCOP(=O)(O)CO[C@H](C)Cn1cnc2c(N)ncnc21.N , report IC50.
40.8

For the compound C[C@H](Cn1cnc2c(N)ncnc21)OCP(=O)(O)OCCCCCCCCCCCCCCCCCC[Si](C)(C)C.N , report IC50.
51.4

For the compound CCCCCCCCCCCCCCCCCCOP(=O)(O)CO[C@H](C)Cn1cnc2c(N)ncnc21.N , report IC50.
52.9

For the compound C#CCCCCCCCCCCCCCCCCOP(=O)(O)CO[C@H](C)Cn1cnc2c(N)ncnc21.N , report IC50.
18.7

For the compound C#CCCCCCCCCCCCCCOP(=O)(O)CO[C@H](C)Cn1cnc2c(N)ncnc21.N , report IC50.
54.8

For the compound CCCCCCCCCCCCCCCOP(=O)(O)CO[C@H](C)Cn1cnc2c(N)ncnc21.N , report IC50.
54.9

====

# Measurement target: CYP3A4 (Homo sapiens (Human))
# Sequence (P08684 whole entry): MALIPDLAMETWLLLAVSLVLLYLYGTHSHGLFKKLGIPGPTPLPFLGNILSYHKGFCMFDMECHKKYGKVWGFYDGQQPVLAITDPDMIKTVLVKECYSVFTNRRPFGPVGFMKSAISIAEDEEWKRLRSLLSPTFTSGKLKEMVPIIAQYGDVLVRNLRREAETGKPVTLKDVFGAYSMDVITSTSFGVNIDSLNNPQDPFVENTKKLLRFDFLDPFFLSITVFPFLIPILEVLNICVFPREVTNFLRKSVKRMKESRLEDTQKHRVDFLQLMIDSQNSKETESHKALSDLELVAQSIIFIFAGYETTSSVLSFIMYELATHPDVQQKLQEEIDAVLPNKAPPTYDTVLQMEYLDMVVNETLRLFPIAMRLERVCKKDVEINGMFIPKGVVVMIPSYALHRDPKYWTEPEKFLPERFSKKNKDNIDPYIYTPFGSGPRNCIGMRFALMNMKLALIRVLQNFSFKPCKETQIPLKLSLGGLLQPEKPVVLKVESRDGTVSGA
# Test method notes: Fluorometric CYP450 enzyme inhibition assay, CYP3A4
# Type: biochemical
# Method: The CYP450 inhibition assays utilized microsomes from insect cells expressing human recombinant individual cDNA-expressed CYP isoforms 3A4 and 2D6, as well as the fluorogenic probe that produces fluorescent metabolite. Standard inhibitors were co-incubated with fluorogenic substrates and their inhibitory potential (IC50) was determined. […] Immediately (within 1 min) the fluorescence was measured using a microplate reader (BIOTEK® Synergy Neo2). […] Data was exported and analyzed using Graph Pad Prism 7. […]
Assay readout: IC50 (µM)
Quick note: give the figure in µM, leave out the unit.

For the compound N.[2H]C([2H])([2H])CCCCCCCCCCCCCCCOP(=O)(O)CO[C@H](C)Cn1cnc2c(N)ncnc21 [EJM-8-036] , report IC50.
87.4

For the compound N.[2H]C([2H])([2H])C([2H])([2H])CCCCCCCCCCCCCOP(=O)(O)CO[C@H](C)Cn1cnc2c(N)ncnc21 [EJM-8-030] , report IC50.
52.2

====

# Test system: HEK293 cells
# Conditions: 50% cytotoxic concentration; italicized results: absence of human serum albumin
Provide the reported CC50 of each item.

For the compound C[C@H](Cn1cnc2c(N)ncnc21)OCP(=O)(O)OCCCOCCCCCCCCCCCCCCCC(F)(F)F.N [NP-PD-158] , report CC50.
> 100 µM

For the compound C[C@H](Cn1cnc2c(N)ncnc21)OCP(=O)(O)OCCCOCCCCCCCCCCCCCC#CC(F)(F)F.N [NP-PD-149] , report CC50.
> 100 µM

For the compound C[C@H](Cn1cnc2c(N)ncnc21)OCP(=O)(O)OCCCCCCCCCCCCCCCCC#C[Si](C)(C)C.N [NP-PD-042] , report CC50.
68.1 µM
